Molecular target: furin, P09958;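 also: purified furin at 1:10 enzyme:substrate in 50 mM HEPES pH 7.5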
Sequence (P09958 whole entry): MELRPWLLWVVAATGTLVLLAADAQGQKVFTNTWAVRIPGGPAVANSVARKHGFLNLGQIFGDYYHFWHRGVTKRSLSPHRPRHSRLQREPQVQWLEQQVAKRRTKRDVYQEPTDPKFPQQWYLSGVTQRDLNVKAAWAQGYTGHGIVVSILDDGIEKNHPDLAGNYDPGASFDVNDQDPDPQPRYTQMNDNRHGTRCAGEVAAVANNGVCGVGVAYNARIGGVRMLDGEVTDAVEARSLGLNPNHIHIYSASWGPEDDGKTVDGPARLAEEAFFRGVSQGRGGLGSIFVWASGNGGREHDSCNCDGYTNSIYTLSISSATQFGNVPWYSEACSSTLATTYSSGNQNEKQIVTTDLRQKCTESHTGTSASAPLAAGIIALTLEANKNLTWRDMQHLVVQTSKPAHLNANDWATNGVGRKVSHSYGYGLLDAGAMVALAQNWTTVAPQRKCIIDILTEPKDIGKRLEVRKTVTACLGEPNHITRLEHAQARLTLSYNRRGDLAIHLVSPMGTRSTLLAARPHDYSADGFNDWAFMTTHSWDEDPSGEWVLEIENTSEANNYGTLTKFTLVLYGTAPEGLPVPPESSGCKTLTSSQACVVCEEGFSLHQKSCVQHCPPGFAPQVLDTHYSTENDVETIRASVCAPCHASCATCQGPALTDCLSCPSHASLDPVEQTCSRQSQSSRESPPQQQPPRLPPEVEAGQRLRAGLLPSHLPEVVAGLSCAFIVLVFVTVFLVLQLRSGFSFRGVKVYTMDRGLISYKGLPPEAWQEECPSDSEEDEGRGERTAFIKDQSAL
Assay: furin cleavage Z-score vs untreated control; higher = more cleavage, active = 3.5 or more, inactive = 1 or less, 8 variable residues between constant flanks
Conditions: 30 min
This is one part of the list. How many sequences the whole screen found active is unknown.
PROPERTY: furin cleavage Z-score
Form: value (number only, do not type unit).

entry_sequence="CATCNRRKKEAGNASASA [FS-1492]" numeric_readout=1.86
entry_sequence="CARPRRGIIFAGNASASA [FS-3021]" numeric_readout=5.75
entry_sequence="CARPRRQGEVAGNASASA [FS-3023]" numeric_readout=0.396

furin cleavage Z-score for CARDLRGLAEAGNASASA [FS-2904] is 0.275
